System: OVCAR-3
test.name: Cytotoxicity against human OVCAR-3 cells after 72 hrs by Cell Titer-Blue cell viability assay
Assay type: functional, cell-based
assay.conditions: OVCAR-3, 72 h
Exercise: state measured IC50 for each of the compounds provided.

1) CCc1c(OC)cc2c(c1O)C(=O)C[C@@H](OC)[C@H]2O ... > 25 µM
2) COC1=CC(=O)c2c(cc(OC)c(C(C)O)c2O)C1=O (racemic) ... 7.9 µM
3) COC1=CC(=O)c2c(cc(OC)c(C(C)OC)c2O)C1=O (racemic) ... 13 µM

Read the next record carefully.
Provide only the value of recorded IC50 for COC1=CC(=O)c2c(cc(OC)c(C(C)C3=C(O)C(=O)c4cc(OC)cc(O)c4C3=O)c2O)C1=O (racemic)
17 µM
